Data provenance is ChEMBL document CHEMBL5335844.

Molecular target: Acetylcholinesterase (Homo sapiens, UniProt P22303)
Sequence (P22303 whole entry): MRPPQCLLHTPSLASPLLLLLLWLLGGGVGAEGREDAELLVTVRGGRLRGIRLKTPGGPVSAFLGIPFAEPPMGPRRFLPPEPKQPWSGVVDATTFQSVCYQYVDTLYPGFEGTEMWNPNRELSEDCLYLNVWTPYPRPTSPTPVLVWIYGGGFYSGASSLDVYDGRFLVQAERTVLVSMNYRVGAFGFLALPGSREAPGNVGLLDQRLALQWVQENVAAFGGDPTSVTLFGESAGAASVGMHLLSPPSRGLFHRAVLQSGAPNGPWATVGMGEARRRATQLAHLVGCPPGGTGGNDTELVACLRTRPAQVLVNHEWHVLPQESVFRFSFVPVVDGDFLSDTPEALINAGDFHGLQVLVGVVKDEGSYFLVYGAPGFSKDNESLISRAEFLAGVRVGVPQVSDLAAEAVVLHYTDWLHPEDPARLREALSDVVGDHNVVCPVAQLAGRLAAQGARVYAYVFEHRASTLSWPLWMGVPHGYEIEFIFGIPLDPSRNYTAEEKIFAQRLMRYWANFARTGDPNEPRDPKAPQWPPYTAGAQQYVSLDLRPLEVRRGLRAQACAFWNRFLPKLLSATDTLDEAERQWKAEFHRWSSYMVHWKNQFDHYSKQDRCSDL
Assay: Inhibition of human erythrocyte AChE using acetylthiocholine iodide as substrate preincubated for 5 mins followed by substrate addition and measured every min for 10 mins by Ellman's method
Consider the following compounds; for each one, report its pIC50.
One number for each entry, as −log10 of the molar value.

| structureString | pIC50 |
| --- | --- |
| CCN1/C(=C/C(C)=O)Sc2ccc(OC(=O)NC3CCCCC3)cc21 | 4.96 |
| CCCCCCNC(=O)Oc1ccc2c(c1)N(CC)/C(=C/C(C)=O)S2 | 4.85 |
| CCN1/C(=C/C(C)=O)Sc2ccc(OC(=O)NCCc3ccccc3)cc21 | 4.70 |

We next turn to a different compound, shown below.
For the compound shown here, `CCN1/C(=C/C(C)=O)Sc2ccc(OC(=O)NCc3cccnc3)cc21` , give the reported pIC50.
4.47
